Target under test: XIAP BIR3 domain (Homo sapiens, UniProt P98170)
Construct: fluorescent probe 4 and the XIAP BIR3 domain (Sino Biological, Beijing, China) were used for all measurements
Sequence (P98170 252-356 limits assumed): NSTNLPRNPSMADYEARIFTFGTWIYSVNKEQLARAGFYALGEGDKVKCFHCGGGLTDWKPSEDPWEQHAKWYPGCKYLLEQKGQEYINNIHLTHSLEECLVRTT
Protocol description: Fluorescence polarization inhibition (competition) assay
Experimental context: XIAP BIR3 50 nM, fluorescent probe 4 2 nM
Description: The fluorescence polarization assay was performed at r.t. in Corning 384-well black, polystyrene flat bottom plates (Corning, NY, USA) on a Synergy H4 Hybrid Reader (BioTek, Bad Friedrichshall, Germany). For fluorescence polarization measurements, (milipolarization units, mP) 484/20 nm excitation and 528/20 nm emission filters were selected. […] The obtained fluorescence polarization assay data were analyzed with Prism 5.0 Software (GraphPad Software, San Diego, ca.). […]
Ki values by entry
Respond numerically; units are nM and should not be typed.

>  <Molecule>
CN[C@@H](C)C(=O)N[C@H](C(=O)N1CCC[C@H]1C(=O)NC(C)P(=O)(Oc1ccccc1)Oc1ccccc1)C1CCCCC1 (stereo partly drawn)

>  <Unit spec>
nM

>  <Ki>
15000

$$$$
>  <Molecule>
CN[C@@H](C)C(=O)N[C@H](C(=O)N1CCC[C@H]1C(=O)NC(Cc1ccccc1)P(=O)(Oc1ccccc1)Oc1ccccc1)C(C)C (stereo partly drawn)

>  <Unit spec>
nM

>  <Ki>
50

$$$$

// next item, Ki requested
Prompt: Return Ki (reported value) for this molecule: CN[C@@H](C)C(=O)N[C@H](C(=O)N1CCC[C@H]1C(=O)NC(Cc1ccccc1)P(=O)(Oc1ccccc1)Oc1ccccc1)C1CCCCC1 (stereo partly drawn)
Completion: 350
